assay: Panc-1005 Cancer Cell Toxicity qHTS against the NCATS CANVASS Library (AID 1347349); details: Panc-1005 viability, CellTiter-Glo luminescence, 72 h; series mostly up to 38.3 µM; also: nearly all actives have a fitted effect of over 60% in size; also: potency is read from the fitted curve at half-maximal effect
Inconclusive results are not listed. Calls of active or inactive are those of the source. Calls follow the shape of the dose curve; as a rule, active = well fitted cell-killing curve with a large enough effect; inconclusive = small, poorly fitted or top-dose-only effect; inactive = flat fitted curve, though single readings scatter.
Observable: Potency

// below: answered compounds
C=CC(=C)CC[C@]1(C)[C@H]2C[C@H](OC(=O)C(C)CC)C=C3[C@H](OC(C)=O)O[C@H](OC(C)=O)[C@@]32[C@H](OC)C[C@@H]1C (stereo not given in full)    2.17 µM (active)
O=C1CC(c2cc(O)cc(O)c2)Oc2cc(O)ccc21 (stereo not given)    inactive
CC(C)=CCC/C(C)=C/Cc1c(O)c(CC=C(C)C)c(O)c2c(=O)c3cc(O)ccc3oc12    14.9 µM (active)
CCCCCCC[C@@H](C/C=C/CCC(=O)NCCc1c[nH]c2ccccc12)OC    inactive
CC(=O)[C@@H]1[C@@H](O)C[C@H]2[C@]3(C)CC[C@H]4C(C)(C)CCC[C@]4(CO)[C@H]3C[C@H]3OC(=O)[C@@H]1[C@@]32C    inactive
C=CC(C)(C)C(=O)[C@@H](C)[C@@H]1CC[C@](C)(C=C)O1    inactive
C=C1C[C@@]23C=CC(=O)[C@@](C)(CCCC(C)C(=O)O)[C@@H]2C[C@@H]1CC3 (stereo not given in full)    inactive
C=C1C(=O)O[C@H]2C[C@H](C)[C@@H]3CC(=O)C(C)=C3[C@H](O)[C@H]12    18.8 µM (active)

Prompt: Quick one: Potency of C=C1C[C@@]23C=CC(=O)[C@@](C)(CCC(=O)Nc4c(O)ccc(C(=O)O)c4O)C2C[C@@H]1CC3 (stereo not given in full) ?
Completion: inactive
